- Tgt: Cytochrome P450 3A4 (Homo sapiens)
- Sequence (P08684 whole entry): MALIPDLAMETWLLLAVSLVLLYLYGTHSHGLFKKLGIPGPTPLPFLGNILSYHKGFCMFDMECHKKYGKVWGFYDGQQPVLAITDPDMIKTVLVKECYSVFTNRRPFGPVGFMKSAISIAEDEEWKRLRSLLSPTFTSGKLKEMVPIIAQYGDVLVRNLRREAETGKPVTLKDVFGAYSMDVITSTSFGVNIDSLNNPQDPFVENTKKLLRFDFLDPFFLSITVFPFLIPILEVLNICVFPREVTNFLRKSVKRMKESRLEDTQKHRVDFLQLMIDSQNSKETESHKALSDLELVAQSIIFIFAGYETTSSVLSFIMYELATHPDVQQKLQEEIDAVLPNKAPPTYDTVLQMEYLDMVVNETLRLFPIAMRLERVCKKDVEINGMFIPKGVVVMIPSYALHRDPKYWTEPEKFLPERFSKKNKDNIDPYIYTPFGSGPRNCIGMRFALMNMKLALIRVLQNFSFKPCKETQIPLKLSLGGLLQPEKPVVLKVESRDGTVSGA
- Method summary: Inhibition of human CYP3A4 by fluorescence plate reader analysis
- Type: ADME
pIC50: −log10 of the molar value.
Reported values of pIC50 for individual entries
Parameter: pIC50

smiles_data=COc1cnc(C(=O)Nc2ccc(F)c([C@]3(C)Cn4c(C#N)cnc4C(N)=N3)c2)cn1 tgt="Cytochrome P450 3A4 (Homo sapiens)" parameter=pIC50 recorded_number=5.51
smiles_data=C[C@@]1(c2cc(NC(=O)c3ccc(Cl)cn3)ccc2F)Cn2c(C#N)cnc2C(N)=N1 tgt="Cytochrome P450 3A4 (Homo sapiens)" parameter=pIC50 recorded_number=6.05
smiles_data=C[C@@]1(c2cc(NC(=O)c3ccc(C#N)cn3)ccc2F)Cn2c(C#N)cnc2C(N)=N1 tgt="Cytochrome P450 3A4 (Homo sapiens)" parameter=pIC50 recorded_number=5.17
smiles_data=C[C@@]1(c2cc(NC(=O)c3ccc(F)cn3)ccc2F)Cn2c(C#N)cnc2C(N)=N1 tgt="Cytochrome P450 3A4 (Homo sapiens)" parameter=pIC50 recorded_number=5.36
